target: CCR2 (Homo sapiens, UniProt P41597)
Sequence (P41597 1-360 isoform P41597-2): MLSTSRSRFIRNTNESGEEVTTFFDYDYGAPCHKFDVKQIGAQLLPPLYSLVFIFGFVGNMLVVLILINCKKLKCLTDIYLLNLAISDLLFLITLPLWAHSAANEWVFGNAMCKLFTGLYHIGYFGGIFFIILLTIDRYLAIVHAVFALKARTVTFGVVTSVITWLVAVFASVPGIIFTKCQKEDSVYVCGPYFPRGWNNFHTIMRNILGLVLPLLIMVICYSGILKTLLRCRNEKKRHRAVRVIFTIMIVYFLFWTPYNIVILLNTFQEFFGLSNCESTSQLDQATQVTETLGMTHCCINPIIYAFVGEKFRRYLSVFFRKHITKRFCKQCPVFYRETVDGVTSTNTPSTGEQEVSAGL
quantityKind: IC50 (nM)

| compound | u | IC50 |
| --- | --- | --- |
| CCNC(=O)NCC(C1CCN(C(=O)/C=C/c2cccc(C(F)(F)F)c2)CC1)N1CCC(c2c[nH]c3ccccc23)CC1 (stereo not shown) [Cpd 232] | nM | 4000 |
| O=C(O)C(C1CCN(C(=O)/C=C/c2cc(F)c(F)c(F)c2)CC1)N1CCC(c2c[nH]c3ncccc23)CC1 (stereo not shown) [Cpd 151] | nM | 10 |
| O=C(O)C(C1CCN(C(=O)Nc2cccc(Cl)c2)CC1)N1CCC(c2c[nH]c3ccccc23)CC1 (stereo not shown) [Cpd 86] | nM | 210 |
| O=C(/C=C/c1cc(F)c(F)c(F)c1)N1CCC(C(CO)N2CCC(c3coc4ncccc34)CC2)CC1 (stereo not shown) [Cpd 248] | nM | 1900 |
| O=C(/C=C/c1cc(F)cc(F)c1)N1CCC(C(CO)N2CCC(c3nccs3)CC2)CC1 (stereo not shown) [Cpd 194] | nM | 2300 |

1 = COc1ccc(C2CCN(C(CO)C3CCN(C(=O)/C=C/c4ccc(F)c(Br)c4)CC3)CC2)cc1 (stereo not shown) [Cpd 161]
2 = O=C(O)C(C1CCN(C(=O)Nc2cc(F)cc(F)c2)CC1)N1CCC(c2c[nH]c3ccccc23)CC1 (stereo not shown) [Cpd 28]
Between 1 and 2 , which one shows the larger IC50 value? # reply format: chosen label 2
